t1/2 values, listed per item
target: Human EphA2 (in house, 0.95 mol biotin/monomer) (Human) (UniProt P29317); assay: SPR (Biacore), biotinylated human EphA2 on streptavidin chip
Sequence (P29317 25-534 limits assumed): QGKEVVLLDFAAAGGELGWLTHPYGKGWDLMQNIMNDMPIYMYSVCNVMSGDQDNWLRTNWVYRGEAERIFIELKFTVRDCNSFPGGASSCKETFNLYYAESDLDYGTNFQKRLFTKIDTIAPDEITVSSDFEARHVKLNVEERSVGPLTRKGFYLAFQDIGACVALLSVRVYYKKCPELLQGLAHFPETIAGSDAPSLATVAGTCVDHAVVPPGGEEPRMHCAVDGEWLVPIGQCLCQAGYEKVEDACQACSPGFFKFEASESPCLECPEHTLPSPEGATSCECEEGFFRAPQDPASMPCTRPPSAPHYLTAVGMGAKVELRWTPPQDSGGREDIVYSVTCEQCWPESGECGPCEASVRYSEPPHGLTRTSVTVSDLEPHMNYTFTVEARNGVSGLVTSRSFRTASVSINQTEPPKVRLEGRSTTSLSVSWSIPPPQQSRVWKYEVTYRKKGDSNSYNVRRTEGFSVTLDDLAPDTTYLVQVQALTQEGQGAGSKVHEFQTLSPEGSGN
*1 amine or outer side, *2 acyl side, *3 side chain or, on linkers, in order; H or OH if unused. Bridges are numbered along the chain shown (N, C = ends). Where no end group is shown, it is not given here. [ ]: non-standard residue; d: D form. The star is where a group is joined. DM1‑SS‑ = DM1-SS- (SPDB) linker/toxin, COc1cc2cc(c1Cl)N(C)C(=O)C[C@H](OC(=O)[C@H](C)N(C)C(=O)CCSSCCCC(=O)*)[C@]1(C)O[C@H]1[C@H](C)[C@@H]1C[C@@](O)(NC(=O)O1)[C@H](OC)/C=C/C=C(\C)C2; TATA = O=C(CC[*:1])N1CN(C(=O)CC[*:2])CN(C(=O)CC[*:3])C1; PABC = O=C(OCc1ccc(N[*:1])cc1)[*:2]; Glutaryl = O=C(CCCC(=O)[*:2])[*:1]; hArg = N=C(N)NCCCC[C@H](N)C(=O)O; Cit = NC(=O)NCCC[C@H](N)C(=O)O; βAla = NCCC(=O)O; Sar = CNCC(=O)O
Value Type: t1/2 (min)

{"Binder": "{DM1‑SS‑}-[βAla][Sar][Sar][Sar][Sar][Sar][Sar][Sar][Sar][Sar][Sar]A[hArg]DCPLVNPLCLHPGWTC (linker 15-22-29 via TATA; not fully specified (C-terminus)) [BCY6031]", "Measured Value": 2.3}
{"Binder": "{MMAE-PABC-Cit-Val-Glutaryl}-[βAla][Sar][Sar][Sar][Sar][Sar][Sar][Sar][Sar][Sar][Sar]A[hArg]DCPLVNPLCLHPGWTC (linker 15-22-29 via TATA; not fully specified (C-terminus)) [BCY6033]", "Measured Value": 3.5}
